- Tested on: rat brain homogenate
- Experiment: Lipid Peroxidation Inhibition Test
- Type: biochemical, rat (SD-line male)
- Details: 1 μM sample compound, pH 7.4, 1 hour at 37° C., TBA method
Readout type: Lipid peroxidation inhibitory ratio (%)
Write down the numeric answer in % and omit the unit.

Field: example entries. Status: answers known.
Compound: CC(C)Cc1cc(CC(=O)Nc2ccc(N(C)C)cc2)ccc1OCc1ccccc1 [Example 15]
Lipid peroxidation inhibitory ratio / %: 24.8

Compound: CC(C)Cc1cccc(C(=O)Nc2ccc(N(C)C)cc2)c1OCc1ccccc1 [Example 10]
Lipid peroxidation inhibitory ratio / %: 28.2

Compound: COc1ccc(C(=O)Nc2ccc(N(C)C)cc2)cc1CC(C)C [Example 7]
Lipid peroxidation inhibitory ratio / %: 48.9

Query (compound): CC(C)Cc1nccc(C(=O)Nc2ccc(N(C)C)cc2)c1O [Example 5] ; field requested: Lipid peroxidation inhibitory ratio
29.5

What do we get for CC(C)Cc1cc(C(=S)Nc2ccc(N(C)C)cc2)ccc1O [Example 14] ?
33.9

====

- System: rat brain homogenate
- Experiment: Lipid Peroxidation Inhibition Test
- Assay type: biochemical, rat (SD-line male)
- Details: 1 μM sample compound, pH 7.4, 1 hour at 37° C., TBA method
Readout type: Lipid peroxidation inhibitory ratio (%)
Write down the numeric answer in % and omit the unit.

Field: example entries. Status: answers known.
Compound structure string: COc1ccc(COc2ccc(C(=O)Nc3ccc(N(C)C)cc3)cc2CC(C)C)cc1
Experimental target: rat brain homogenate
Lipid peroxidation inhibitory ratio, %: 41.7
//
Compound structure string: CC(C)=CCC/C(C)=C/COc1ccc(C(=O)Nc2ccc(N(C)C)cc2)cc1CC(C)C
Experimental target: rat brain homogenate
Lipid peroxidation inhibitory ratio, %: 41.7
//
Compound structure string: CC(C)Cc1ccc(O)c(C(=O)Nc2ccc(N(C)C)cc2)c1
Experimental target: rat brain homogenate
Lipid peroxidation inhibitory ratio, %: 26.8
//
Compound structure string: CC(C)Cc1cc(C(=O)Nc2ccc(N(C)C)cc2)ccc1O
Experimental target: rat brain homogenate
Lipid peroxidation inhibitory ratio, %: 40.1
//
Compound structure string: CC(C)Cc1cc(S(=O)(=O)Nc2ccc(N(C)C)cc2)ccc1OC(=O)c1ccccc1
Experimental target: rat brain homogenate
Lipid peroxidation inhibitory ratio, %: 13.4

Give recorded Lipid peroxidation inhibitory ratio with rat brain homogenate for the following molecule: CC(C)Cc1cccc(CC(=O)Nc2ccc(N(C)C)cc2)c1O
10.4

====

Brain infarction inhibitory ratio reference
- Test system: middle cerebral artery (MCA) infarction model
- Experiment: Brain Infarction Inhibition Test (MCA infarction model)
- Type: in vivo, rat (Crj:Fischer-344 line male)
- Details: dose was 100 mg/kg; 2 hours ischemia, 2 hours reperfusion; i.p. 20 minutes before or i.v. simultaneously with reperfusion; * p < 0.05
Write down the numeric answer in % and omit the unit.

Field: example entries. Status: answers known.
Compound structure string: CC(C)Cc1cccc(C(=O)Nc2ccc(N(C)C)cc2)c1OCc1ccccc1
Reported result: 18.7
//
Compound structure string: CC(C)Cc1cc(C(=O)Nc2ccc(N(C)C)cc2)ccc1O
Reported result: 53.0
//
Compound structure string: CC(C)Cc1ccc(O)c(C(=O)Nc2ccc(N(C)C)cc2)c1
Reported result: 41.2
//
Compound structure string: CC(C)Cc1cc(CC(=O)Nc2ccc(N(C)C)cc2)ccc1OCc1ccccc1
Reported result: 2.8
//
Compound structure string: CC(C)Cc1cc(C(=O)Nc2ccc(N(C)C)cc2)ccc1OCc1ccccc1
Reported result: 39.9
//
Compound structure string: CC(C)Cc1cc(S(=O)(=O)Nc2ccc(N(C)C)cc2)ccc1O
Reported result: 0.7

Give recorded Brain infarction inhibitory ratio with middle cerebral artery (MCA) infarction model for the following compound: CC(C)Cc1nccc(C(=O)Nc2ccc(N(C)C)cc2)c1O
19.0

====

- Test system: rat brain homogenate
- Experiment: Lipid Peroxidation Inhibition Test
- Format: biochemical, rat (SD-line male)
- Details: 1 μM sample compound, pH 7.4, 1 hour at 37° C., TBA method
Readout type: Lipid peroxidation inhibitory ratio (%)
Write down the numeric answer in % and omit the unit.

Field: example entries. Status: answers known.
Compound structure string: CC(C)Cc1cccc(C(=O)Nc2ccc(N(C)C)cc2)c1O
Experimental target: rat brain homogenate
Readout unit: %
Reported result: 22.7

Compound structure string: CC(C)Cc1ccc(C(=O)Nc2ccc(N(C)C)cc2)cc1O
Experimental target: rat brain homogenate
Readout unit: %
Reported result: 13.5

Compound structure string: CC(C)Cc1cc(CC(=O)Nc2ccc(N(C)C)cc2)ccc1O
Experimental target: rat brain homogenate
Readout unit: %
Reported result: 14.4

Compound structure string: CC(C)Cc1cc(S(=O)(=O)Nc2ccc(N(C)C)cc2)ccc1O
Experimental target: rat brain homogenate
Readout unit: %
Reported result: 24.2

Then this compound:
Query (compound): CC(C)Cc1cc(C(=O)Nc2ccc(N(C)C)cc2)ccc1OCc1ccccc1 ; field requested: Lipid peroxidation inhibitory ratio
28.1

Cited source for all entries: patent US6083987A
